Measured absorption maximum of individual entries
assay: solvent given as SMILES; conditions: in ClCCl

[
  {
    "input smiles": "CN(C)c1ccc(C2=CC3=C(c4ccc(C=O)cc4)[C@H]4c5ccccc5[C@]3(S2)c2ccccc24)cc1",
    "absorption maximum / nm": 449
  },
  {
    "input smiles": "CCN(CC)c1ccc2cc(/C=C/C(=O)/C=C(O)/C=C/c3cc4ccc(N(CC)CC)cc4oc3=O)c(=O)oc2c1",
    "absorption maximum / nm": 523
  },
  {
    "input smiles": "CCc1cccc(CC)c1-c1c2ccccc2c(C#Cc2ccccc2)c2cc3ccccc3cc12",
    "absorption maximum / nm": 523
  },
  {
    "input smiles": "CC1(C)c2ccccc2N(c2ccc3c(ccc4nc5ccc6cc(N7c8ccccc8C(C)(C)c8ccccc87)ccc6c5nc43)c2)c2ccccc21",
    "absorption maximum / nm": 416
  }
]

----------
experiment: solvent given as SMILES; conditions: in c1ccccc1
Criterion: absorption maximum meeting or surpassing 400 nm. Met: y. Not met: n.

[
  {
    "input smiles": "c1ccc(-c2nc(-c3ccc(-c4ccc(N(c5ccccc5)c5ccccc5)cc4)cn3)oc2-c2ccccc2)cc1",
    "label class": "n"
  },
  {
    "input smiles": "Cc1cc(C)c(B(c2c(C)cc(C)cc2C)c2cc3ccc4ccccc4c3c3c2ccc2ccccc23)c(C)c1",
    "label class": "y"
  },
  {
    "input smiles": "O=C1/C(=C2\\Sc3ccccc3C2=O)Sc2ccccc21",
    "label class": "y"
  },
  {
    "input smiles": "COc1ccc(-c2c3ccc([nH]3)c3nc(c(-c4ccc([N+](=O)[O-])cc4)c4ccc([nH]4)c4ccc([nH]4)c(-c4ccc(OC)cc4)c4ccc2o4)C=C3)cc1",
    "label class": "y"
  },
  {
    "input smiles": "CC1(C)Cc2c(c3ccccc3c3nc4c(nc23)c2c(c3ccccc34)OC(C)(C)C2)O1",
    "label class": "y"
  },
  {
    "input smiles": "Cc1cc(C)c(B(c2c(C)cc(C)cc2C)c2cc3cc(N(C)C)c4ccccc4c3c3c2ccc2ccccc23)c(C)c1",
    "label class": "y"
  },
  {
    "input smiles": "CCOC(=O)c1sc2nc3c(c(C#N)c2c1N)CCCC3",
    "label class": "y"
  },
  {
    "input smiles": "CCN1c2ccc(-c3cc(C(F)(F)F)[nH]n3)cc2Sc2cc(-c3cc(C(F)(F)F)[nH]n3)ccc21",
    "label class": "n"
  },
  {
    "input smiles": "Cc1ccc(-c2cc(-c3ccccc3Cl)c3c(N)nc(N4CCCC4)c(C#N)c3n2)cc1",
    "label class": "y"
  },
  {
    "input smiles": "Nc1ccc2c(c1)C(=O)c1ccccc1-2",
    "label class": "y"
  },
  {
    "input smiles": "CCOC(=O)CSc1nc(C)c(CC)c(C#N)c1C#N",
    "label class": "n"
  },
  {
    "input smiles": "CCC[n+]1ccc(/C=C/c2ccc(N(C)C)cc2)cc1",
    "label class": "y"
  },
  {
    "input smiles": "Cc1ccc(-c2c3ccc([nH]3)c3nc(c(-c4ccc(C#N)cc4)c4ccc([nH]4)c4ccc([nH]4)c(-c4ccc(C)cc4)c4ccc2o4)C=C3)cc1",
    "label class": "y"
  },
  {
    "input smiles": "CCOC(=O)CN(CC(=O)OCC)c1ccc(-c2cc(-c3ccccn3)nc(-c3ccccn3)c2)cc1",
    "label class": "n"
  },
  {
    "input smiles": "CN(C)/C=N\\c1ccc2c3c(cccc13)C(=O)c1ccccc1-2",
    "label class": "y"
  },
  {
    "input smiles": "COc1ccc(-c2nc3ccccc3oc2=O)cc1",
    "label class": "n"
  }
]

----------
experiment: solvent given as SMILES; settings: in CN(C)C=O
Label Y when absorption maximum >= 400 nm; otherwise N.

[
  {
    "compound": "COc1ccc(-c2csc(/C(C#N)=N\\Nc3ccc(C#N)cc3)n2)cc1",
    "label class": "Y"
  },
  {
    "compound": "CCn1c2sccc2c2c3nsnc3c3c4ccsc4n(CC)c3c21",
    "label class": "Y"
  },
  {
    "compound": "Cc1ccc(C2CC(c3ccc(O)cc3)=NN2c2ccc(S(N)(=O)=O)cc2)cc1 (stereo not given)",
    "label class": "N"
  },
  {
    "compound": "Oc1ccc(/N=C/c2ccccc2Oc2ccccc2)cc1",
    "label class": "N"
  },
  {
    "compound": "COc1ccc(OC)c(C=O)c1",
    "label class": "N"
  },
  {
    "compound": "COC(=O)c1ccc2c3ccc(C(=O)OC)c4c(C(=O)OC)ccc(c5ccc(C(=O)OC)c1c25)c43",
    "label class": "Y"
  },
  {
    "compound": "CC(C)(C)c1ccc(-c2nc3c4ccccc4c4ccccc4c3n2-c2ccc(C(C)(C)C)cc2)cc1",
    "label class": "N"
  },
  {
    "compound": "CC1(C)c2ccccc2N(c2ccc(-c3nnc(-c4ccccc4O)o3)cc2)c2ccccc21",
    "label class": "N"
  },
  {
    "compound": "COc1ccc(C#Cc2c3ccccc3c3n2[B-](F)(F)[N+]2=C(C)C=C(C)C2=C3)cc1",
    "label class": "Y"
  }
]

----------
assay: solvent given as SMILES; conditions: in CO
Label Criterion met when absorption maximum >= 400 nm; otherwise Criterion not met.

[
  {
    "molecule": "CN(C)c1c2ccccc2cc2ccccc12",
    "label class": "Criterion not met"
  },
  {
    "molecule": "CC1(C)C2=[N+](CCCCCC(=O)NCNC(=O)CCCCCN3/C(=C/C=C/C=C/C=C/2)C(C)(C)c2cc(S(=O)(=O)[O-])ccc23)c2ccc(S(=O)(=O)[O-])cc21",
    "label class": "Criterion met"
  },
  {
    "molecule": "O=c1[nH]c(=O)c2scc([C@H]3C[C@H](O)[C@@H](CO)O3)c2[nH]1",
    "label class": "Criterion not met"
  },
  {
    "molecule": "O=C(O)CCCc1ccc2ccc3cccc4ccc1c2c34",
    "label class": "Criterion not met"
  },
  {
    "molecule": "Cc1ccc(-c2cc(-c3ccccc3)c3c(N)nc(N4CCCC4)c(C#N)c3n2)cc1",
    "label class": "Criterion met"
  },
  {
    "molecule": "COC(=O)c1ccc2c3ccc(C(=O)OC)c4c(C(=O)OC)ccc(c5ccc(C(=O)OC)c1c25)c43",
    "label class": "Criterion met"
  },
  {
    "molecule": "COc1ccc(-c2nc(-c3ccc(C#N)cc3)[nH]c2-c2ccc(OC)cc2)cc1",
    "label class": "Criterion not met"
  },
  {
    "molecule": "COc1cc2c(cc1C=C(C#N)C#N)c1ccccc1n2C",
    "label class": "Criterion met"
  },
  {
    "molecule": "Clc1ccc(/C=C(\\c2ccccc2)c2nc3ccccc3o2)cc1",
    "label class": "Criterion not met"
  },
  {
    "molecule": "Cc1ccc(-c2nc(-c3ccc(O)cc3)[nH]c2-c2ccc(C)cc2)cc1",
    "label class": "Criterion not met"
  },
  {
    "molecule": "Cc1ccc(-c2cc(-c3ccccc3Cl)c3c(N)nc(N4CCCC4)c(C#N)c3n2)cc1",
    "label class": "Criterion met"
  },
  {
    "molecule": "COC1(OC)C2(Cl)c3nc4cc(-c5cccs5)ccc4nc3C1(Cl)C1C[C@H]3[C@@H](CC12)C1(Cl)c2nc4cc(-c5cccs5)ccc4nc2C3(Cl)C1(OC)OC (some centres undefined)",
    "label class": "Criterion not met"
  },
  {
    "molecule": "CCC1=C(C)C(=O)n2c1cc1c(C)c(CC(=O)OC)c(C)n1c2=O",
    "label class": "Criterion met"
  },
  {
    "molecule": "COc1ccc(-c2nc(-c3cccc(OC)c3)[nH]c2-c2ccc(OC)cc2)cc1",
    "label class": "Criterion not met"
  }
]

----------
test: solvent given as SMILES; conditions: in CO
Classification field: Yes = absorption maximum at or over 400 nm; No = absorption maximum under 400 nm.

[
  {
    "input smiles": "COc1ccc(C2=C3C=c4c(oc5ccccc45)=[N+]3[B-](F)(F)n3c2cc2c4ccccc4oc23)cc1",
    "label class": "Yes"
  },
  {
    "input smiles": "CCC1=C(C)C2=C(C)c3c(I)c(I)c(I)n3[B-](F)(F)[N+]2=C1C",
    "label class": "Yes"
  },
  {
    "input smiles": "O=C1C=C(Nc2ccccc2[N+](=O)[O-])C(=O)c2ccccc21",
    "label class": "Yes"
  },
  {
    "input smiles": "CN(C)CCCN1c2ccccc2CCc2ccccc21",
    "label class": "No"
  },
  {
    "input smiles": "CC(C)CCCN1c2ccccc2CCc2ccccc21",
    "label class": "No"
  },
  {
    "input smiles": "CN(C)c1ccc(-c2nc3cnccc3[nH]2)cc1",
    "label class": "No"
  }
]

The reported measurements were obtained from the Deep4Chem optical property database.
